Tested on: Wolbachia pipientis
Assay: Anti-Wolbachia Cell-Based Screen
Format: functional
Parameters: scale not given: in the data most compounds retested in dose-response had high values
Details: 5 µM
In all, about 48,000 compounds went through this assay and about 13,000 (27%) showed an effect of 50% or more. The list shows a part of the results.

COMPOUND: O=C(Cc1ccsc1)N1CCN(CC2CC2)c2ncccc2C1.O=C(O)C(F)(F)F
UNIT: %
Percent Effect: -24.66

COMPOUND: CC(C)OCCSc1nnnn1C1CCOCC1
UNIT: %
Percent Effect: -9.456

COMPOUND: Cc1nc(C2CCCN(C(=O)c3ccc(OCC4CC4)nc3)C2)no1 (centres undefined)
UNIT: %
Percent Effect: 97.67

COMPOUND: CC(C)(C)c1nc(CN(Cc2cccs2)C2CCS(=O)(=O)C2)cs1 (centres undefined)
UNIT: %
Percent Effect: 26.63

COMPOUND: CC(=O)NCC(=O)N1CCN(Cc2cccnc2)c2ncccc2C1
UNIT: %
Percent Effect: -23.25

COMPOUND: CCOc1cc(C(=O)N2CCCC(c3noc(C)n3)C2)ccc1OC (centres undefined)
UNIT: %
Percent Effect: 123.2

COMPOUND: Cc1nc2c(c(NC(C)C)n1)CCN(C1CCOCC1)CC2.O=C(O)C(F)(F)F
UNIT: %
Percent Effect: -10.52

COMPOUND: CC(C)Nc1nc2c(c(NC3CC3)n1)CCN(C(=O)C1CCOC1)CC2 (centres undefined)
UNIT: %
Percent Effect: 25.31

COMPOUND: CCOCc1nc2c(c(NCCNC(C)=O)n1)CCN(C(C)=O)CC2
UNIT: %
Percent Effect: 14.8

COMPOUND: CC(NCc1cnc(C2CCC2)s1)c1ccccc1-n1cccn1 (centres undefined)
UNIT: %
Percent Effect: -10.15

COMPOUND: COc1ccnc(C(=O)N2CCCC(c3noc(C)n3)C2)c1 (centres undefined)
UNIT: %
Percent Effect: -1.667

COMPOUND: CC(=O)NCC(=O)N1CCc2nc(C)nc(C)c2CC1
UNIT: %
Percent Effect: -10.4

COMPOUND: CC(C)(C)c1cc(C(=O)NCCn2nc3ccccn3c2=O)[nH]n1
UNIT: %
Percent Effect: 15.5

COMPOUND: O=C(OCCNc1ncccn1)c1ccc(Cl)s1
UNIT: %
Percent Effect: -0.7929

COMPOUND: Cc1noc(CN(Cc2cccs2)C2CCS(=O)(=O)C2)n1 (centres undefined)
UNIT: %
Percent Effect: 99.33

COMPOUND: O=S1(=O)CCC(N(Cc2nc3ccccc3o2)Cc2cccs2)C1 (centres undefined)
UNIT: %
Percent Effect: 98.01

COMPOUND: O=C(CN(Cc1cccs1)C1CCS(=O)(=O)C1)NC1CCCCC1 (centres undefined)
UNIT: %
Percent Effect: 14.98

COMPOUND: CCc1ccc(CNC(=O)Nc2cc(C)on2)s1
UNIT: %
Percent Effect: -14.37

COMPOUND: Cn1nc(CN2CCCN(C3CCCC3)CC2)c2c(Cl)cccc21
UNIT: %
Percent Effect: 4.033

COMPOUND: Cc1nc2c(c(NC(C)C)n1)CCN(C(=O)CCO)CC2
UNIT: %
Percent Effect: 103

COMPOUND: CC(C)c1noc(CN(Cc2cccs2)C2CC2)n1
UNIT: %
Percent Effect: 16.09

COMPOUND: Cc1noc(CCNC(=O)c2ccc(Br)c(S(=O)(=O)N(C)C)c2)n1
UNIT: %
Percent Effect: 13.21

COMPOUND: CC(C)Nc1nc2c(c(NC3CC3)n1)CN(C(=O)c1ccncc1)CC2
UNIT: %
Percent Effect: 1.63

COMPOUND: C=C(C)CN(CC)S(=O)(=O)c1ccccc1C#N
UNIT: %
Percent Effect: -2.977

The origin of these recorded values is ChEMBL document CHEMBL3988442.
